MEASURED ON: AKT (Homo sapiens)
Construct: Kinases are expressed as either kinase domains or full length constructs; made in house
Sequence (Q9Y243 whole entry, the tested form may be a part): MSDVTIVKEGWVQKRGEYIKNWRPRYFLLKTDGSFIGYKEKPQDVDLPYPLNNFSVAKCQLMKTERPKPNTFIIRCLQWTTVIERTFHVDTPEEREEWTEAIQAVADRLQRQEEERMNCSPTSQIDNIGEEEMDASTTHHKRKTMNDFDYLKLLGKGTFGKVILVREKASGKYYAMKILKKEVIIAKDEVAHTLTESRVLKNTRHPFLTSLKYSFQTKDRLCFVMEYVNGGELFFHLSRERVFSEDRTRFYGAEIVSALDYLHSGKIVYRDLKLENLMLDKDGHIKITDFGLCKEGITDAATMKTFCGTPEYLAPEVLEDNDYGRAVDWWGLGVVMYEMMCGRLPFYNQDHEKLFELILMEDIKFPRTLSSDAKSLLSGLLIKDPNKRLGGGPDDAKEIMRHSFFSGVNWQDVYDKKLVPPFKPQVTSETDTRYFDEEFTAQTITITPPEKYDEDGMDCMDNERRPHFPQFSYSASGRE
PROTOCOL: Kinase inhibition assay (33P transfer), AKT
Format: biochemical
RUN CONDITIONS: Table 2, kinase inhibition class; read-out: AKT3-1
pIC50: −log10 of the molar value.
PARAMETER: pIC50

COMPOUND: CN(c1cccc(Cl)c1)c1ncnc(Nc2cc(-c3ccco3)[nH]n2)n1 [Compound 753]
PARAMETER: pIC50
DATA VALUE: < 4.91
//
COMPOUND: O=c1[nH]c2ccccc2n1-c1ncnc(Nc2ccc3ncccc3c2)n1 [Compound 687]
PARAMETER: pIC50
DATA VALUE: < 4.90
//
COMPOUND: CC(=O)NS(=O)(=O)c1ccc(Nc2ncnc(N(C)c3cccc(Cl)c3)n2)cc1 [Compound 751]
PARAMETER: pIC50
DATA VALUE: < 4.98
//
COMPOUND: COc1ccc(Nc2ncnc(NCCC#N)n2)cc1OC [Compound 787]
PARAMETER: pIC50
DATA VALUE: < 4.82
//
COMPOUND: COc1cc(Nc2ncnc(Nc3[nH]ncc3-c3ccccc3)n2)cc(OC)c1OC [Compound 369]
PARAMETER: pIC50
DATA VALUE: < 4.97
//
COMPOUND: COc1ccc(Sc2ncnc(Nc3cc(OC)c(OC)c(OC)c3)n2)cc1 [Compound 175]
PARAMETER: pIC50
DATA VALUE: < 4.95
//
COMPOUND: COc1ccc(Nc2ncnc(-c3cccs3)n2)cc1OC [Compound 357]
PARAMETER: pIC50
DATA VALUE: < 4.84
//
COMPOUND: Cc1ccc2c(c1)CCCN2c1ncnc(NCCc2cccnc2)n1 [Compound 775]
PARAMETER: pIC50
DATA VALUE: < 4.89
//
COMPOUND: COc1cccc(Nc2ncnc(N(C)c3cccc(Cl)c3)n2)c1 [Compound 741]
PARAMETER: pIC50
DATA VALUE: < 4.88
//
COMPOUND: OCCCNc1ncnc(-c2ccccc2)n1 [Compound 971]
PARAMETER: pIC50
DATA VALUE: < 4.71
//
COMPOUND: COc1cc(Nc2ncnc(N[C@H]3CCCc4ccccc43)n2)cc(OC)c1OC [Compound 619]
PARAMETER: pIC50
DATA VALUE: 4.96 to 5.07
//
COMPOUND: COc1ccc(Nc2ncnc(Nc3cccc(-c4ccnc(C)n4)c3)n2)cc1OC [Compound 789]
PARAMETER: pIC50
DATA VALUE: < 4.97
//
COMPOUND: NC(=O)c1ccc(Nc2ncnc(-n3c(=O)[nH]c4ccccc43)n2)cc1 [Compound 419]
PARAMETER: pIC50
DATA VALUE: < 4.89
//
COMPOUND: Fc1ccc(Nc2ncnc(Nc3ccc4[nH]ncc4c3)n2)cc1Cl [Compound 717]
PARAMETER: pIC50
DATA VALUE: < 4.90
//
COMPOUND: Cc1cccc(Nc2ncnc(N3CCCc4ccc(C(F)(F)F)cc43)n2)c1 [Compound 582]
PARAMETER: pIC50
DATA VALUE: < 4.93
//
COMPOUND: COc1cc(NC(=O)Nc2ncnc(Nc3cc(OC)c(OC)c(OC)c3)n2)cc(OC)c1 [Compound 22]
PARAMETER: pIC50
DATA VALUE: < 5.01
//
COMPOUND: COc1ccc(N(C)c2ncnc(-n3c(N)nc4ccccc43)n2)cc1 [Compound 663]
PARAMETER: pIC50
DATA VALUE: < 4.89
//
COMPOUND: CN(c1ccc(F)c(Cl)c1)c1ncnc(Nc2cccc(Br)c2)n1 [Compound 713]
PARAMETER: pIC50
DATA VALUE: < 4.96
//
COMPOUND: COc1cc(Nc2ncnc(Nc3ccc(O)cc3)n2)cc(OC)c1OC [Compound 85]
PARAMETER: pIC50
DATA VALUE: < 4.91
//
COMPOUND: COc1cc(Nc2ncnc(-n3ccc4ccc(F)cc43)n2)cc(OC)c1OC [Compound 464]
PARAMETER: pIC50
DATA VALUE: < 4.94
//
COMPOUND: COc1ccc(CCNc2ncnc(N3CCCc4cc(C)ccc43)n2)cc1OC [Compound 771]
PARAMETER: pIC50
DATA VALUE: < 4.95
//
COMPOUND: CCOC(=O)Cc1ccc(Nc2ncnc(Nc3cc(OC)c(OC)c(OC)c3)n2)cc1 [Compound 62]
PARAMETER: pIC50
DATA VALUE: < 4.99
//
COMPOUND: COc1cc(Nc2ncnc(-n3c(NCc4ccccc4C)nc4ccccc43)n2)cc(OC)c1OC [Compound 511]
PARAMETER: pIC50
DATA VALUE: < 5.04
//
COMPOUND: COc1cc(Nc2ncnc(N[C@@H]3CCCc4ccccc43)n2)cc(OC)c1OC [Compound 620]
PARAMETER: pIC50
DATA VALUE: < 4.96
//
COMPOUND: COc1cc(Nc2ncnc(-n3c(NCc4ccc(Br)cc4)nc4ccccc43)n2)cc(OC)c1OC [Compound 940]
PARAMETER: pIC50
DATA VALUE: < 5.10
//
COMPOUND: COc1cc(Nc2ncnc(Nc3cccc(C(=O)O)c3)n2)cc(OC)c1OC [Compound 933]
PARAMETER: pIC50
DATA VALUE: < 4.95
